Entry source: PubChem BioAssay (NCI)

Hi there, I'd appreciate the recorded TGI for every entry that follows.
Test system: HCT-15 colon
Assay: NCI tumour cell line growth inhibition, 48 h
Expressed in µM, but write only the number.

Prompt: Give TGI for CCOC(OC1=C(C#N)CCCC1)C(CC)[Se]c1ccccc1[N+](=O)[O-] (stereo unspecified)
Completion: 37.1

Prompt: Give TGI for CCOC(=O)CCc1ccc(NC(=O)/C=C/c2ccc([N+](=O)[O-])o2)cc1
Completion: 4.05

Prompt: Give TGI for Cc1ccc2c(c1)CC1(C2)Cc2ccc(C)cc2C1=O (stereo unspecified)
Completion: 79.5

Prompt: Give TGI for COC(=O)/C(C#N)=C/c1cc(C(C)(C)C)c(O)c(C(C)(C)C)c1
Completion: 13
